# TEST_NAME: Displacement of [3H]-clonidine from bovine imidazoline receptor I-1
pKi: −log10 of the molar value.
MEASUREMENT_NAME: pKi

What pKi value was documented for this molecule, COc1nc(C)nc(Cl)c1N=C1NCCN1 ?
7.25

P: Clc1cccc(Cl)c1N=C1NCCN1
Q: CC(C)C1C2CCC(C2)C1N (centres undefined) [3-Isopropyl-bicyclo[2.2.1]hept-2-ylamine]
Endpoint returns whichever of P and Q has the numerically higher pKi. Answer with the label corresponding to your selection.
P
